system_under_test: human GLP-1 receptor (human, UniProt P43220 24-463)
Sequence (P43220 24-463): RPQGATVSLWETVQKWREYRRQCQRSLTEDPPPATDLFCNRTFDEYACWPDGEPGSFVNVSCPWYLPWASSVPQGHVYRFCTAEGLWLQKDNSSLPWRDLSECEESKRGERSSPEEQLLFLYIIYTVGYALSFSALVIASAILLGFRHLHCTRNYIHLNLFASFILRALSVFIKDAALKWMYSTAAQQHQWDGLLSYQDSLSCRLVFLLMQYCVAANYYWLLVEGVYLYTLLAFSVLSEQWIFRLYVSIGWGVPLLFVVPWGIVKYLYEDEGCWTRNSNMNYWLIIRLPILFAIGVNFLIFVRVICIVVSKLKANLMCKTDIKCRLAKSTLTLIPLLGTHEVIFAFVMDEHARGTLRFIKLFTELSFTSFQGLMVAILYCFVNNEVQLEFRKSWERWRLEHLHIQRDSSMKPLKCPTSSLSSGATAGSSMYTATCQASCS
procedure_summary: cell-based or functional assay
Bridge positions count the residues as written; N and C are the ends. Square brackets hold non-standard residues; d marks the D form. Ends that are not written are not given here. * marks the point of attachment. Acetyl(2-(4-imidazolyl)) = O=C(Cc1c[nH]cn1)*; Aib = CC(C)(N)C(=O)O
Attribute: In Vitro Activity Compared to Native Peptide (%) vs. GLP-1 (relative titer from cAMP EC50)
observation_type: In Vitro Activity Compared to Native Peptide (%) vs. GLP-1 (relative titer from cAMP EC50)

binder="[Acetyl(2-(4-imidazolyl))][Aib]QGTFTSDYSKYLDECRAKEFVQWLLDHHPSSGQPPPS (bridge 16-20; not fully specified (bridges)) [trigonal agonist of SEQ ID NO: 28]" units_of_measure=% readout_value=22.6
binder="H[Aib]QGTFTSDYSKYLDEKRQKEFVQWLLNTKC (bridge 16-20; not fully specified (bridges)) [trigonal agonist of SEQ ID NO: 18]" units_of_measure=% readout_value=39.1
binder="Y[Aib]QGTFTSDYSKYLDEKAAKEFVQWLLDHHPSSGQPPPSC (bridge 16-20; not fully specified (bridges)) [trigonal agonist of SEQ ID NO: 30]" units_of_measure=% readout_value=35.1
binder="Y[Aib]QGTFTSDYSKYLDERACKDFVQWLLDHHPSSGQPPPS (bridge 16-20; not fully specified (bridges); ends not checked) [trigonal agonist of SEQ ID NO: 26]" units_of_measure=% readout_value=90.1
binder="Y[Aib]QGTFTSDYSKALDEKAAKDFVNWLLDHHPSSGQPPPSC (bridge 16-20; not fully specified (bridges)) [trigonal agonist of SEQ ID NO: 43]" units_of_measure=% readout_value=20.9
